Attribution: PubChem BioAssay (NCI)

system: OVCAR-8 ovarian; assay: NCI-60 one-dose screen, 48 h; settings: 10 µM unless noted
Compounds without any hit were thinned out: in the full panel of roughly 83,000, 20% have a hit. The source made the active and inactive calls. How the source made its calls: active means growth percent below 10; inactive means the rest.
Select the matching outcome among T for active, F for inactive

INSERT INTO assay_data (compound, class_name) VALUES
  ('CN1CCN(Cc2ccc(NC(=O)c3cncc(C#Cc4cnn5ccccc45)c3)cc2C(F)(F)F)CC1', 'T'),
  ('CCN1C(=O)N(CC)C2C1NN=C1SCC(=O)N12 (stereo not given)', 'F'),
  ('O=C1Nc2ccc(F)cc2/C1=N/c1nnc(Sc2ccccc2)s1', 'F'),
  ('CC1=CCC[C@@H]2C1(C)CC[C@H](C)[C@@]2(C)CC1=CC(=O)C(SC(C)(C)C)=CC1=O (stereo not given in full)', 'F');

Now let's try a different one.
Problem: What classification did CCN(CCO)CC(C)Nc1ccc([N+](=O)[O-])c2sc3ccccc3c(=O)c12 (stereo not given) end up with in this test?
Result: F
